Measured IMAX, listed per entry.
- measured-on: T1, mouse MET-Fc (R&D Systems) (mouse, UniProt P16056 25-929, limits assumed)
- T1 construct: bought chimeric protein; also called mMET; not shown: Fc part
- assay-notes: competition ELISA, mMET-Fc in solid phase, competitor 0.3 nM biotinylated mHGF
Hi! Could you send only the number? It should be in %, unit omitted.

A selection of reference data follows.
71G2 chimeric llama-human IgG1 mAb (antibody, V domains shown, llama VH on human IgG1 CH1-CH2-CH3, llama VL on human lambda CL) VH: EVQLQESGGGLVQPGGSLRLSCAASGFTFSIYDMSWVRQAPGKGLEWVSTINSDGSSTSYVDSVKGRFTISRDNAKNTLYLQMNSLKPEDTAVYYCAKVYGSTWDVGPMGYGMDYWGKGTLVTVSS VL: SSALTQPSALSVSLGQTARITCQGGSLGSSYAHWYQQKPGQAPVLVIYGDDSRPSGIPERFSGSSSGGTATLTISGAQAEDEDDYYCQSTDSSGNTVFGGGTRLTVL :: 91.9
71G3 chimeric llama-human IgG1 mAb (antibody, V domains shown, llama VH on human IgG1 CH1-CH2-CH3, llama VL on human lambda CL) VH: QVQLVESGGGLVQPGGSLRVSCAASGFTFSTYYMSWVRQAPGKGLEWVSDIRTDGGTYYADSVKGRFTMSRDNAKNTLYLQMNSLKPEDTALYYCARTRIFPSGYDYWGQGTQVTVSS VL: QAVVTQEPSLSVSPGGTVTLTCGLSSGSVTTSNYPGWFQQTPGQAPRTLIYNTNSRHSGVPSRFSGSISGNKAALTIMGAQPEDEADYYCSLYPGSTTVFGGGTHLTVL :: 62.9
71D4 chimeric llama-human IgG1 mAb (antibody, V domains shown, llama VH on human IgG1 CH1-CH2-CH3, llama VL on human lambda CL) VH: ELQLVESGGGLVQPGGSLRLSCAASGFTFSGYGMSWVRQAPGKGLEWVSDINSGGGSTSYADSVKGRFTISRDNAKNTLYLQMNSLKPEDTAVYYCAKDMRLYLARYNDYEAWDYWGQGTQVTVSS VL: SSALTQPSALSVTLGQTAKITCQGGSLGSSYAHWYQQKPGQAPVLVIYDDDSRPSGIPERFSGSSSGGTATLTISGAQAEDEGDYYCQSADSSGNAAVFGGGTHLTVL :: 91.3
71A3 chimeric llama-human IgG1 mAb (antibody, V domains shown, llama VH on human IgG1 CH1-CH2-CH3, llama VL on human lambda CL) VH: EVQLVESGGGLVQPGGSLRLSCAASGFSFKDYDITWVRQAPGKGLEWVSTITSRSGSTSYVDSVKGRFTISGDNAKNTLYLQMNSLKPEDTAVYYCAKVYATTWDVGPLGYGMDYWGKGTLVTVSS VL: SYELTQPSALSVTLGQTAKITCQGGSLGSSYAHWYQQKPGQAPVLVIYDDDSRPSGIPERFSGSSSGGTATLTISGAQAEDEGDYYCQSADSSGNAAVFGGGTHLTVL :: 87.7
71D6 chimeric llama-human IgG1 mAb (antibody, V domains shown, llama VH on human IgG1 CH1-CH2-CH3, llama VL on human lambda CL) VH: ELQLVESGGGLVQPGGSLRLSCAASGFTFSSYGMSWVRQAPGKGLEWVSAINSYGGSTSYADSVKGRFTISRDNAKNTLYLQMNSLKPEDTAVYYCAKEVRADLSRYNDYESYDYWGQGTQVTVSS VL: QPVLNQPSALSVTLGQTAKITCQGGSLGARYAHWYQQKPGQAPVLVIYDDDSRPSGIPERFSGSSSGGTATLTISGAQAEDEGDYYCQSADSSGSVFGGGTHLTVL :: 90.5

Next binder, IMAX to be filled in.
Prompt: Could you share which IMAX value was measured for 74C8 chimeric llama-human IgG1 mAb (antibody, V domains shown, llama VH on human IgG1 CH1-CH2-CH3, llama VL on human lambda CL) VH: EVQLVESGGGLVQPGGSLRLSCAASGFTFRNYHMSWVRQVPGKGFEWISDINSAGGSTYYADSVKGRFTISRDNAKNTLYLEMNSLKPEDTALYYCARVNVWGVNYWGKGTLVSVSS VL: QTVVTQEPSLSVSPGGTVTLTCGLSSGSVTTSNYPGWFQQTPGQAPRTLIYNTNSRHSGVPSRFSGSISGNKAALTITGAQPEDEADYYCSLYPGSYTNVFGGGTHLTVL ?
Completion: 71.5
